System: SK-MEL-5
Test: NCI tumour cell line growth inhibition, 48 h
Activity calls are given as the source filed them. Rule as the data show it: active = GI50 up to about 1.1 µM and inactive = higher.
Value Kind: GI50

Molecule	GI50
O=C(O)C1CCCN1C(=O)c1cc(Cl)ccn1 (stereo not given)	> 100 µM (inactive)
CSC1=N/C(=C\c2cccs2)C(=O)N1CN1CCCCC1	66.8 µM (inactive)
CCN(CC)CCOc1ccc(N2C(=O)c3cc(OC)c(OC)cc3C2=O)cc1	> 100 µM (inactive)
C[P+](C)(C)C	> 100 µM (inactive)
COc1ccc(NC(=O)/C(=N/NC(N)=S)C2C(=O)NC(=S)NC2=O)c(OC)c1	> 100 µM (inactive)
CC(/C=N/N=C(N)N)=N\N=C(N)N	191 µM (inactive)

Would you mind listing GI50 for each of the following molecules?
1. Cc1cccc(C2SCc3nc4ccccc4n32)c1 (stereo not given)
2. CCc1cc2c(cc1CCCC(=O)O)CC1(Cc3ccc(C(=O)O)cc3C1)C2 (stereo not given)
3. CC1C(c2ccccc2O)c2cc3c(cc2OC1N1CCCC1)OCO3 (stereo not given)
4. CCC(C)COC(=O)c1ccc(/N=C\c2ccc(/C=N/c3ccc(C(=O)OCC(C)CC)cc3)cc2)cc1 (stereo not given)
5. CCCn1c2c(c3ccccc3c1=O)C(=O)c1ccccc1-2
6. Clc1ccc(OCc2nnc3sc(-c4ccc(-c5ccc(Cl)cc5Cl)o4)nn23)cc1
7. COc1cc2c(cc1OC)C(=O)/C(=C/c1ccc(O)cc1)CC2
8. CC(=O)NNc1nc(-c2ccc([N+](=O)[O-])cc2)c(C#N)c(=O)n1C

1: 14.3 µM (inactive); 2: > 100 µM (inactive); 3: 39.2 µM (inactive); 4: > 100 µM (inactive); 5: 11.2 µM (inactive); 6: > 100 µM (inactive); 7: > 10 µM (inactive); 8: > 100 µM (inactive)

---

System: NCI-H226
Assay: NCI tumour cell line growth inhibition, 48 h
Calls of active or inactive are those of the source. No stated cut-off is given here; in the data, active = GI50 up to about 1.1 µM and inactive = higher. Where a SMILES comes first, the peptide text is derived from it. [ ]: non-standard residue; d: D form. The star is where a group is joined. Bn2Val = CC(C)[C@@H](C(=O)*)N(Cc1ccccc1)Cc1ccccc1; NH(3,4-diMeO-benzyl) = COc1ccc(CN*)cc1OC; NMeV = CN[C@H](C(=O)O)C(C)C
Value Kind: GI50

Compound	Assay Value
NC(=O)/N=C1\NCCC(=O)N1CCc1c[nH]c2ccccc12	18.2 µM (inactive)
CC1Oc2c(c(=O)oc3ccccc23)[C@@]1(C)CC1C[C@H](C)C(=O)O1 (stereo partly drawn)	> 100 µM (inactive)
O=C1/C(=C/c2ccc(O)c([N+](=O)[O-])c2)CCC/C1=C\c1ccc(O)c([N+](=O)[O-])c1	11.6 µM (inactive)
CC1=NN(C(=O)c2cc(Cl)cc([N+](=O)[O-])c2)C(=O)C1/N=N/c1ccccc1C(=O)O (stereo not drawn)	> 100 µM (inactive)
COc1ccc(CNC(=O)[C@@H]2CCCN2C(=O)[C@@H]2CCCN2C(=O)[C@H](C(C)C)N(C)C(=O)[C@@H](NC(=O)[C@H](C(C)C)N(Cc2ccccc2)Cc2ccccc2)C(C)C)cc1OC (Bn2Val-V[NMeV]PP-{NH(3,4-diMeO-benzyl)})	17.3 µM (inactive)
Cc1ccc(S(=O)(=O)n2ccn3c(=O)cc(C)nc23)cc1	> 10 µM (inactive)
COc1ccc(/C=C(\Cl)c2ccc(OC)cc2)cc1	> 100 µM (inactive)

Now turn to the next compound.
What GI50 value was documented for this compound, Nc1nc2ncn(CC(O)COC(=O)c3ccccc3)c2c(=O)[nH]1 (stereo not drawn) ?
> 100 µM (inactive)
